B1: NF2 (merlin) isoform 7, human, full length (507 aa, lacks exons 2-3 = isoform-1 residues 39-121; exon-16 C-terminus), P35240-4 (parent)
chain: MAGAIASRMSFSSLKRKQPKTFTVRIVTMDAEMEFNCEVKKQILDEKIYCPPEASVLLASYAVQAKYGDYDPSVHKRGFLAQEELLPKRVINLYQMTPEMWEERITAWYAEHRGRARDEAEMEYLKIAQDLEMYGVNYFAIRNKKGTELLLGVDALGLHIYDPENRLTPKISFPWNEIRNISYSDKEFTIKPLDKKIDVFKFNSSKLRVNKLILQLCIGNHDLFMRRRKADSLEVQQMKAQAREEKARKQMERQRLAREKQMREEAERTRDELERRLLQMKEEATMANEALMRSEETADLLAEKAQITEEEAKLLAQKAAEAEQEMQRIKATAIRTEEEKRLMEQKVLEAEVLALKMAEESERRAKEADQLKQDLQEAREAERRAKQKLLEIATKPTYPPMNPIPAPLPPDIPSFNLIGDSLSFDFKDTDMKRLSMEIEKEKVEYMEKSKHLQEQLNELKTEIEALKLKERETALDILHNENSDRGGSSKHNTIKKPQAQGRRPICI

- Variants of: B1
- experimental_details: reverse yeast two-hybrid deep mutational scan (rY2H-seq): NF2 isoform 7 mutant library as bait mated with wild-type prey strains; selection on medium lacking adenine for non-interacting pairs; NextSeq paired-end sequencing; enrichment vs …
- assay_context: with NF2 C-terminal domain (wild type; homomeric NF2-NF2 interaction), P35240; yeast diploids after mating (RBait_S3 x RPrey_S3), 30 °C, selection for reporter genes on NB agar; human ABL2 co-expressed as the kinase-dead K35M mutant …; HIGHER = WEAKER BINDING (the opposite of display enrichments): higher = stronger loss of interaction: reverse Y2H selects yeast in which bait and prey do NOT interact (growth without adenine), so a …; hits-only table; partner unresolved; scale: rY2H score; numbering: uniprot, sequence starts at 1
measured_metric: enrichment
Just the number, please, no unit after it.

Below, each entry is followed by its recorded enrichment result.
variant_descriptor: L355E
enrichment: 1.76
//
variant_descriptor: A140G
enrichment: 1.75
//
variant_descriptor: D476G
enrichment: 1.92
//
variant_descriptor: D420A
enrichment: 2.35
//
variant_descriptor: F415A
enrichment: 2.73

Looking up A266L , I see its enrichment listed as 3.08

Looking up A312K , I see its enrichment listed as 2.34

Looking up E295K , I see its enrichment listed as 2.66

Looking up L417T , I see its enrichment listed as 2.32

Looking up W175A , I see its enrichment listed as 2.08

Looking up Y161A , I see its enrichment listed as 2.34
